target: Cyclin-dependent kinase 7 (Homo sapiens, UniProt P50613); assay: Inhibition of CDK7 (unknown origin)
Sequence (P50613 whole entry): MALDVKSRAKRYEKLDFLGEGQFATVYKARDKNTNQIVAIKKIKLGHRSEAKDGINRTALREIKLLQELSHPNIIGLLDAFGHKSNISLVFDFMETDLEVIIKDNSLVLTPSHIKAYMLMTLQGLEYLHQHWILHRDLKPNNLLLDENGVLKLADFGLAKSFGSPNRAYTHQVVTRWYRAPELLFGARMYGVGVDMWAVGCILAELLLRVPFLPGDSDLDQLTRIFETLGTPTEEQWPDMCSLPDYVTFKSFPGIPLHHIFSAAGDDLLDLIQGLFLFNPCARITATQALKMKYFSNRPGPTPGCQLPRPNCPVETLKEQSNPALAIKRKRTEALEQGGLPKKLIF
quantity.kind: pIC50
Hey, just a heads up that pIC50 is the negative log base 10 of the concentration in molar.

Item under review: `C[C@H](CO)Nc1nc(Nc2ccc(S(N)(=O)=O)cc2)ncc1Br` . Reported pIC50? 7.07

----------
biological target: Cyclin-dependent kinase 4 (Homo sapiens, UniProt P11802); experiment: Inhibition of CDK4 (unknown origin) using Ulight-labeled substrate by TR-FRET LANCE method
Sequence (P11802 whole entry): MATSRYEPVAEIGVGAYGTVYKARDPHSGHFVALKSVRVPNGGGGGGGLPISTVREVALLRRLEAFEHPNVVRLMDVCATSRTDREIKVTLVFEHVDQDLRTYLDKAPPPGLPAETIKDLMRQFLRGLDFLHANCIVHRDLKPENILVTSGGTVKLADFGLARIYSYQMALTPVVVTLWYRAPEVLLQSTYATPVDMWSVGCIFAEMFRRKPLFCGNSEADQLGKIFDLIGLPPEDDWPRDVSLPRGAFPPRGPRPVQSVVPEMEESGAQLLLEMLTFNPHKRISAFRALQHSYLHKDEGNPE
quantity.kind: pIC50
Quick note: pIC50 values are minus log10 of concentrations in mol/L.

Field request: pIC50 | item: `COc1ccc(F)cc1-c1c(F)cnc2[nH]c(C3=CCN([C@H]4CC[C@H](C(=O)O)CC4)CC3)cc12` 6.79

Every entry's value here was drawn from ChEMBL document CHEMBL4699469.
